Source: ChEMBL document CHEMBL3885861

- Species: Rattus norvegicus
- Test Details: Open TG-GATES - Regimen: Single
- Format: toxicity, organism-based, Sprague-Dawley
- Set-up: regimen Single, gender Male, age 6 weeks
- Run Conditions: in vivo, po, 1000 mg/kg, 9 h, tissue Blood, route gavage, dose level High
Quantity Kind: Ret (%)
Answers are plain numbers, in %.

Worked examples follow.
# input I have this molecule here, C[C@H](CS)C(=O)N1CCC[C@H]1C(=O)O , and I need its recorded Ret.
# output 8.7

# input I have this molecule here, Clc1ccccc1CN1CCc2sccc2C1 , and I need its recorded Ret.
# output 7.3

# input I have this molecule here, O=C(O)c1cc(/N=N/c2ccc(S(=O)(=O)Nc3ccccn3)cc2)ccc1O , and I need its recorded Ret.
# output 7.2

API: the following record is the query input.
# input I have this molecule here, CCc1cc(C(N)=S)ccn1 [ETHIONAMIDE] , and I need its recorded Ret.
# output 7.5
